All values here come from ChEMBL document CHEMBL1671788.

Molecular target: Metabotropic glutamate receptor 4 (Homo sapiens)
Sequence (Q14833 whole entry): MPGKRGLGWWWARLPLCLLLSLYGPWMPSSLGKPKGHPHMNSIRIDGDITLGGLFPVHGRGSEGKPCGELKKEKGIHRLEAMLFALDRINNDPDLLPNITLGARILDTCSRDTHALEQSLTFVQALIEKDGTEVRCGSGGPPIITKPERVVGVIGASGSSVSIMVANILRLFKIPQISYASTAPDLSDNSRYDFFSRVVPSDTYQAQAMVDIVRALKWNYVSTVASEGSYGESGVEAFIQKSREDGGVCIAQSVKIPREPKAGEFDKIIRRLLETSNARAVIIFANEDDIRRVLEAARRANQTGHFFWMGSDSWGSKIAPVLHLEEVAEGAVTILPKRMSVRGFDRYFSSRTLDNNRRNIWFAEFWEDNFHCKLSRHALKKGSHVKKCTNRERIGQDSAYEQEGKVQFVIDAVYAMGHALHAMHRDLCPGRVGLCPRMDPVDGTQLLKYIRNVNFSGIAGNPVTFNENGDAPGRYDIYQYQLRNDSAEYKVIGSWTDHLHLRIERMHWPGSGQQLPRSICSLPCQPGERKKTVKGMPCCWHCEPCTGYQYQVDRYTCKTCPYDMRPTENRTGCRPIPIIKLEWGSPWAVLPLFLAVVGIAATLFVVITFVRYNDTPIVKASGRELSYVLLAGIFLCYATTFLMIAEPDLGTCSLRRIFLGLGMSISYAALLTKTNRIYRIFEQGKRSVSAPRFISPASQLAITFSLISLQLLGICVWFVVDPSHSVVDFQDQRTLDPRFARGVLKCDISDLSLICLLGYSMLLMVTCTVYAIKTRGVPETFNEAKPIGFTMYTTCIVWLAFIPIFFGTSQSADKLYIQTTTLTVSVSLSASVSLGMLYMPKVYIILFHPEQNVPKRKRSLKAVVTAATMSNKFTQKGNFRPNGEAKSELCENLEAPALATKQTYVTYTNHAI
Test: Positive allosteric modulation of human mGluR4 expressed in CHO cells coexpressing Gqi5 assessed as calcium mobilization relative to PHCCC
Format: functional, cell-based
METRIC: Activity

[
  {
    "MOLECULE": "O=C(Nc1ccc(NC(=O)c2ccccc2F)c(Cl)c1)c1ccccn1",
    "ASSAY RESULT": "34.5%"
  },
  {
    "MOLECULE": "O=C(Nc1ccc(NC(=O)c2cccs2)c(Cl)c1)c1ccccn1",
    "ASSAY RESULT": "57.8%"
  },
  {
    "MOLECULE": "O=C(Nc1ccc(NC(=O)c2ccccn2)cc1Cl)c1ccccc1",
    "ASSAY RESULT": "37.9%"
  },
  {
    "MOLECULE": "COc1ccccc1C(=O)Nc1ccc(NC(=O)c2ccccn2)cc1Cl",
    "ASSAY RESULT": "16.4%"
  },
  {
    "MOLECULE": "O=C(Nc1ccc(NC(=O)c2ccccc2Cl)c(F)c1)c1ccccn1",
    "ASSAY RESULT": "59.7%"
  },
  {
    "MOLECULE": "COc1cc(NC(=O)C2CCCO2)ccc1NC(=O)c1ccccc1Cl (stereo unspecified)",
    "ASSAY RESULT": "21.3%"
  }
]
